Assignment: determine reported RP-LC retention time for the given compounds.
# experiment: gradient 5% acetonitrile 3 min, to 50% in 2 min, to 85% in 15 min, held 3 min, 100 µL/min
# condition.notes: column: Zorbax Extend-C18 2.1 x 50 mm; eluents: water / acetonitrile, 0.1% formic acid
Your answer should be a plain number; it is taken to be in s.

What does the data say about its RP-LC retention time? Entry: "Cc1ccc2c(c1)N(Cc1cc(F)cc(F)c1)N=C(C(=O)N1CCC(C)CC1)S2(=O)=O" 1080

Now this one: "Cc1sc2c(c1C)C(c1ccc(Cl)cc1)=N[C@@H](CC(=O)Nc1ccc(O)cc1)c1nnc(C)n1-2" 922

Now this one: "Cc1ccc(C(=O)Nc2ccc(OCc3nnc(-c4ccccc4)o3)cc2)s1" 988

Now this one: "C[C@H]1CN(C(=O)c2cc(F)cc(F)c2)C[C@@H]1c1nc(-c2ccccc2)no1" 1040

Now this one: CCOc1ccc(-c2noc(C3CC(=O)N(c4ccc(C)cc4)C3)n2)cc1 (stereo not given) 1080
